# assay.name: growth of efflux-deficient E. coli DRC39 – strain DRC39, OD650, 48 h, E. coli filamentation inducers, primary screen (AID 1179);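 note: screen aims at cell division blockers that make cells filament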
# condition: E. coli DRC39 delta-acrAB growth, higher = more signal, called active from +8 up or from −8 down
measured.endpoint: z-score
Could you keep your reply to the number by itself?

Below, each entry is followed by its recorded z-score result.
molecule	experimental.result
O=C(NCC(O)CO)[C@@]1(Cc2ccccc2)COC(c2ccc(OCCCO)cc2)=N1 (some centres undefined)	0.276
CCCNC(=O)[C@@]1(c2ccc([N+](=O)[O-])cc2)CC(=O)N(CC23CC4CC(CC(C4)C2)C3)[C@@H]1c1ccc(CO)cc1I	0.198
COc1ccc([Si](C)(C)[C@@H]2[C@@H](CCn3cc([C@H](O)c4ccccc4)nn3)O[C@]3(C(=O)N(C)c4ccccc43)[C@H]2C)cc1	-1.33
O=C1C2C=CC(C(O)C3CC=CCC3)N(n3cnnc3)C2C(=O)N1Cc1ccccc1 (centres undefined)	-1.35
CN(C)CCCC[C@@H]1NC(=O)[C@@H]2C[C@H](C(=O)NCc3ccc(F)cc3)[C@H](c3cccc(OCCO)c3)N2C1=O	0.83

Asked: Item `CC(C)CNC(=O)[C@@]1(C)c2ccccc2C(=O)N(C(C)C)[C@H]1c1ccc(CO)cc1` has what recorded z-score?
Given back: -0.049

Asked: And the next one, CCN(CC)c1ccc(N2CC=CC34O[C@@H]5/C=C\CCCOC(=O)C5[C@H]3C(=O)N(CCCO)[C@@H]4C2=O)cc1 (some centres undefined) ?
Given back: -0.322

----------
z-score reference
# assay.name: JC-1 mitochondrial signal, unstimulated MM1S myeloma – cell-based, JC-1 fluorescence, 24 h, 100 nL compound, profiling panel (AID 1170); note: test concentration not given here
# condition: MM1S mitochondrial potential, higher = more signal
Could you keep your reply to the number by itself?

Asked: Item `COCCCNC(=O)[C@@]1(Cc2ccccc2I)c2ccccc2C(=O)N(Cc2ccccc2)[C@H]1c1ccc(CO)cc1` has what recorded z-score?
Given back: 0.651

Asked: And the next one, `Cc1cccc(/C=C/C=O)c1` ?
Given back: -0.313

Asked: And the next one, `O=C(NCC(F)(F)F)[C@@H]1c2ccccc2C(=O)N(Cc2ccccc2)[C@H]1c1ccc(CO)cc1` ?
Given back: -0.657

Asked: And the next one, Cc1ccc(S(=O)(=O)N2CC(C(=O)O)=CCC2c2ccccc2)cc1 (stereo not drawn) ?
Given back: 1.53

Asked: And the next one, `COc1ccc([Si](C)(C)[C@H]2[C@H](CCO)O[C@@]3(C(=O)N(Cc4cccc(N5C(=O)c6cccc7cccc5c67)c4)c4ccccc43)[C@@H]2C)cc1` ?
Given back: -1.34

Asked: And the next one, `CO[C@H]1O[C@H](CO)[C@@H](OC(=O)Nc2ccc(C(F)(F)F)cc2)[C@H](OC(=O)Nc2ccccc2)[C@@H]1OC(=O)Nc1ccccc1` ?
Given back: 0.469

Asked: And the next one, `[N-]=[N+]=Nc1ccccc1[C@@H]1OC(c2ccc(OCCCO)cc2)=N[C@]1(CCS(=O)(=O)c1ccccc1)C(=O)N1CCCCC1` ?
Given back: -0.923

Asked: And the next one, Cc1cc(C)c(C(O)C2C=CC3C(=O)NC(=O)C3N2Nc2ccccn2)c(C)c1 (stereo not drawn) ?
Given back: -0.0615
